The reported numbers originate from paper PMC7413254.

molecular target: PfCRT^Ecu1110 (Plasmodium falciparum, UniProt Q9N623, A220S/I356L/K76T/N326D); test: cell-based; type: cell-based; conditions: [test solute]i = 5 mM (intracellular); PfCRTEcu1110 oocytes; normalised to oocyte type control
Sequence (Q9N623 whole entry A220S/I356L/K76T/N326D): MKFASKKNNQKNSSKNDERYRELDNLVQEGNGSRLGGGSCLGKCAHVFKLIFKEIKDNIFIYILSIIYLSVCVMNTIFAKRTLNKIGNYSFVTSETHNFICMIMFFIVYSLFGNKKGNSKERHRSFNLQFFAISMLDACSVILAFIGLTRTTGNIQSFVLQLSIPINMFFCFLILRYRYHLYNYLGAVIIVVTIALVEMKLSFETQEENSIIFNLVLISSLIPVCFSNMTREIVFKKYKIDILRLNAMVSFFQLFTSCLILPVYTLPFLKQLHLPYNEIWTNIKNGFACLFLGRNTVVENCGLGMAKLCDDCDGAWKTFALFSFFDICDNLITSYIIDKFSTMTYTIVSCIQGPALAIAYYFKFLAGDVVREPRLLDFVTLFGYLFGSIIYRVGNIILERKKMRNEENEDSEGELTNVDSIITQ
ENDPOINT LABEL: PfCRT-mediated [3H]CQ transport, trans-stimulation (% PfCRTEcu1110 control)
One number for each entry, in % PfCRTEcu1110 control.

Before answering, review these 4 worked examples.
> print(dat)
         substance                         target.under.test  quantitative.readout
1  DLHAHKLR [DR-8]  PfCRT^Ecu1110 (Plasmodium falciparum, UniProt Q9N623, A220S/I356L/K76T/N326D)                   130
2   FPHFDLS [FS-7]  PfCRT^Ecu1110 (Plasmodium falciparum, UniProt Q9N623, A220S/I356L/K76T/N326D)                    99
3    HVDPEN [HN-6]  PfCRT^Ecu1110 (Plasmodium falciparum, UniProt Q9N623, A220S/I356L/K76T/N326D)                   117
4   EFTPPVQ [EQ-7]  PfCRT^Ecu1110 (Plasmodium falciparum, UniProt Q9N623, A220S/I356L/K76T/N326D)                   129

Hello, I would appreciate it if you could give PfCRT-mediated [3H]CQ transport, trans-stimulation (% PfCRTEcu1110 control) for each entry below.
1. LSFPTTK [LK-7]
2. LSDLHAHK [LK-8]

[A]
1. 97
2. 97

Hello, I would appreciate it if you could give PfCRT-mediated [3H]CQ transport, trans-stimulation (% PfCRTEcu1110 control) for each entry below.
1. HVDDMPN [HN-7]
2. VDEVGG [VG-6]
3. SHCLLVT [ST-7]

[A]
1: 132; 2: 128; 3: 130

Hello, I would appreciate it if you could give PfCRT-mediated [3H]CQ transport, trans-stimulation (% PfCRTEcu1110 control) for each entry below.
1. VLSPAD [VD-6]
2. AEALERMF [AF-8]
3. PHFDLS [PS-6]
4. VDPVNFK [VK-7]
5. LHVDPENF [LF-8]
6. FSDGLA [FA-6]
7. HVDPENF [HF-7]
8. KEFTPPVQA [KA-9]

[A]
1: 98; 2: 96; 3: 121; 4: 132; 5: 96; 6: 98; 7: 131; 8: 98
